These measurements were taken from patent US12077483B2.

# assay explanation: LNP average particle size and polydispersity by dynamic light scattering
# Assay type: physicochemical
# study conditions: Table 13; LNP sgRNA:Cas9 mRNA 1:2 w/w, N/P 6.0
Record form. Attribute: Z-Ave Size (nm). Fill in for each entry.
Give bare numbers, in nm.

Recorded Z-Ave Size (nm), per entry:
compound	unit abbrev	Z-Ave Size (nm)
CCCCC/C=C\C/C=C\CCCCCCCC(=O)OCC(COC(=O)CCCCCCC/C=C\C/C=C\CCCCC)OC(=O)CCC(CCCCCCCCCCCC)OC(=O)NCCN1CCCC1 (stereo not shown)	nm	94.54
CCCCC/C=C\C/C=C\CCCCCCCC(=O)OCC(COC(=O)CCCCCCC/C=C\C/C=C\CCCCC)OC(=O)CCC(CCCC)OC(=O)NCCN1CCCC1 (stereo not shown)	nm	117.1

# per-item lookup of Z-Ave Size (nm); items listed below
1. CCCCC/C=C\C/C=C\CCCCCCCC(=O)OCC(COC(=O)CCCCCCC/C=C\C/C=C\CCCCC)OC(=O)CCC(CCCCCCCC)OC(=O)NCCN1CCCC1 (stereo not shown)
2. CCCCC/C=C\C/C=C\CCCCCCCC(=O)OCC(COC(=O)CCC(OCCCCCCCC)OCCCCCCCC)COC(=O)OCCCN(CC)CC (stereo not shown) [Compound 49, reference compound]
3. CCCCC/C=C\C/C=C\CCCCCCCC(=O)OCC(COC(=O)CCCCCCC/C=C\C/C=C\CCCCC)OC(=O)CCC(CCCCC)OC(=O)NCCN1CCCC1 (stereo not shown)
4. CCCCC/C=C\C/C=C\CCCCCCCC(=O)OCC(COC(=O)CCCCCCC/C=C\C/C=C\CCCCC)OC(=O)CCC(CCCCCC)OC(=O)NCCN1CCCC1 (racemic)
5. CCCCC/C=C\C/C=C\CCCCCCCC(=O)OCC(COC(=O)CCCCCCC/C=C\C/C=C\CCCCC)OC(=O)CCC(CCCCCCCC)OC(=O)NCCN(C)CC (stereo not shown)

Ans.
1. 97.21
2. 93.14
3. 111.4
4. 102.8
5. 93.01

---

# assay explanation: LNP average particle size and polydispersity by dynamic light scattering
# Type: physicochemical
# study conditions: LNP with the compound as amine lipid; Expt. 10; composition ratio (mol %) 50/9/38/3 for Cmpnd 49, 50/10/38.5/1.5 for the others
# if value of Num Ave Size (nm) reaches 70 nm, tag met; if it stays below, tag not met

Qu. Hello, I need to know if CCCCC/C=C\C/C=C\CCCCCCCC(=O)OCC(COC(=O)CCCCCCC/C=C\C/C=C\CCCCC)OC(=O)CCCC(CCCCCCCC)OC(=O)NCCN(C)CC (stereo not drawn) [Compound 97] has measured Num Ave Size (nm) not below 70 nm. Thanks!
Ans. met

Qu. Entry CCCCC/C=C\C/C=C\CCCCCCCC(=O)OCC(COC(=O)CCCCCCC/C=C\C/C=C\CCCCC)OC(=O)CCC(CCCCCCCC)OC(=O)NCCN1CCC1 (stereo not drawn) [Compound 93] : is its Num Ave Size (nm) no less than 70 nm?
Ans. met

Qu. Check this compound for Num Ave Size (nm) at or above 70 nm: CCCCC/C=C\C/C=C\CCCCCCCC(=O)OCC(COC(=O)CCCCCCC/C=C\C/C=C\CCCCC)OC(=O)CCC(CCCCCCCC)OC(=O)OC1CCN(C)CC1 (stereo not drawn) [Compound 92]
Ans. not met

Qu. hey, is Num Ave Size (nm) for this one >= 70 nm? CCCCC/C=C\C/C=C\CCCCCCCC(=O)OCC(COC(=O)CCCCCCC/C=C\C/C=C\CCCCC)OC(=O)CCC(CCCCCCCC)OC(=O)NCCN(CC)CC (stereo not drawn) [Compound 96]
Ans. met

Qu. Item CCCCC/C=C\C/C=C\CCCCCCCC(=O)OCC(COC(=O)CCCCCCC/C=C\C/C=C\CCCCC)OC(=O)CCC(CCCCCCCC)OC(=O)NCCN1CCCCC1 (stereo not drawn) [Compound 94] with Num Ave Size (nm) of 70 nm or above?
Ans. not met

Qu. Hi, just wondering whether CCCCC/C=C\C/C=C\CCCCCCCC(=O)OCC(COC(=O)CCC(OCCCCCCCC)OCCCCCCCC)COC(=O)OCCCN(CC)CC (stereo not drawn) [Compound 49, reference compound] shows Num Ave Size (nm) of 70 nm or higher.
Ans. met

---

Could you please report measured Num Ave Size (nm) for the items listed next?
# assay explanation: LNP average particle size and polydispersity by dynamic light scattering
# Format: physicochemical
# study conditions: LNP with the compound as amine lipid; Expt. 8; composition ratio (mol %) 50/9/38/3 for Cmpnd 49, 50/10/38.5/1.5 for the others
Answer by giving the amount and then stating its unit.

The following molecules have reported results that may help.
molecule	quantity	assay value
CCCCC/C=C\C/C=C\CCCCCCCC(=O)OCC(COC(=O)CCCCCCC/C=C\C/C=C\CCCCC)OC(=O)CCC(CCCCC)OC(=O)NCC1CCCN1C (stereo not drawn) [Compound 70]	Num Ave Size (nm)	102 nm
CCCCC/C=C\C/C=C\CCCCCCCC(=O)OCC(COC(=O)CCCCCCC/C=C\C/C=C\CCCCC)OC(=O)CCC(CCCCCCC)OC(=O)NCC1CCCN1C (stereo not drawn) [Compound 74]	Num Ave Size (nm)	74.58 nm

Attention now shifts to the item below.
Qu. Which Num Ave Size (nm) value belongs to CCCCC/C=C\C/C=C\CCCCCCCC(=O)OCC(COC(=O)CCCCCCC/C=C\C/C=C\CCCCC)OC(=O)CCC(CCCCCCCCCCCC)OC(=O)NCC1CCCN1C (stereo not drawn) [Compound 9] ?
Ans. 48.82 nm

---

# assay explanation: LNP average particle size and polydispersity by dynamic light scattering
# Type: physicochemical
# study conditions: LNP with the compound as amine lipid; Expt. 8; composition ratio (mol %) 50/9/38/3 for Cmpnd 49, 50/10/38.5/1.5 for the others
quantity: PDI

compound	PDI
CCCCC/C=C\C/C=C\CCCCCCCC(=O)OCC(COC(=O)CCC(OCCCCCCCC)OCCCCCCCC)COC(=O)OCCCN(CC)CC (stereo not drawn) [Compound 49, reference compound]	0.026
CCCCC/C=C\C/C=C\CCCCCCCC(=O)OCC(COC(=O)CCCCCCC/C=C\C/C=C\CCCCC)OC(=O)CCC(CCCCCCCC)OC(=O)NCC1CCCN1C (stereo not drawn)	0.068

Qu. Quick check: PDI of CCCCC/C=C\C/C=C\CCCCCCCC(=O)OCC(COC(=O)CCCCCCC/C=C\C/C=C\CCCCC)OC(=O)CCC(CCCCCCC)OC(=O)NCC1CCCN1C (stereo not drawn) ?
Ans. 0.024

---

Please provide measured Num Ave Size (nm) for the entries that follow.
# assay explanation: LNP average particle size and polydispersity by dynamic light scattering
# Assay type: physicochemical
# study conditions: LNP with the compound as amine lipid; Expt. 8; composition ratio (mol %) 50/9/38/3 for Cmpnd 49, 50/10/38.5/1.5 for the others
Numbers only, in nm.

Please review the following examples before continuing.
molecule	Num Ave Size (nm)
CCCCC/C=C\C/C=C\CCCCCCCC(=O)OCC(COC(=O)CCCCCCC/C=C\C/C=C\CCCCC)OC(=O)CCC(CCCCCCCC)OC(=O)NCC1CCCN1C (stereo not shown) [Compound 35]	62.82
CCCCC/C=C\C/C=C\CCCCCCCC(=O)OCC(COC(=O)CCCCCCC/C=C\C/C=C\CCCCC)OC(=O)CCC(CCCCCC)OC(=O)NCC1CCCN1C (stereo not shown) [Compound 44]	85.76
CCCCC/C=C\C/C=C\CCCCCCCC(=O)OCC(COC(=O)CCC(OCCCCCCCC)OCCCCCCCC)COC(=O)OCCCN(CC)CC (stereo not shown) [Compound 49, reference compound]	69.01

Turning now to a further molecule:
Qu. Which value of Num Ave Size (nm) has been reported for CCCCC/C=C\C/C=C\CCCCCCCC(=O)OCC(COC(=O)CCCCCCC/C=C\C/C=C\CCCCC)OC(=O)CCC(CCCCCCCCCC)OC(=O)NCC1CCCN1C (stereo not shown) [Compound 65] in the records?
Ans. 52.04

---

Would you mind telling me the reported Editing Mean % Indel of each entry?
# Test system: mouse B2M gene
# assay explanation: In vivo editing in mouse liver, LNP with Cas9 mRNA and sgRNA G650, NGS
# study conditions: Table 3; guide G650; CD-1 female mice, 0.1 mpk i.v., liver at 6 or 7 days; Exp. 2-7
Hi, when you answer, please include the unit after the number. Thanks!

molecule	Editing Mean % Indel
CCCCC/C=C\C/C=C\CCCCCCCC(=O)OCC(COC(=O)CCCCCCC/C=C\C/C=C\CCCCC)OC(=O)CCC(CCCCCCCCCCCC)OC(=O)C1(C)CCN(C)CC1 (stereo not shown)	5.3%
CCCCC/C=C\C/C=C\CCCCCCCC(=O)OCC(COC(=O)CCCCCCC/C=C\C/C=C\CCCCC)OC(=O)CCCC(CCCCCCCCCCCC)OC(=O)OCCCN(C)CC (stereo not shown)	5.2%
CCCCCC/C=C\COC(=O)CCCCCCCC(=O)OCC(COC(=O)CCCCCCCC(=O)OC/C=C\CCCCCC)OC(=O)CCC(CCCCCCCCCCCC)OC(=O)NCC1CCCN1C (stereo not shown)	6.8%

Take each entry in turn and give its Editing Mean % Indel.
1. CCCCC/C=C\C/C=C\CCCCCCCC(=O)OCC(COC(=O)CCCCCCC/C=C\C/C=C\CCCCC)OC(=O)CCC(CCCCCCCCCCCCCCCC)OC(=O)OCCCN(C)CC (stereo not shown)
2. CCCCC/C=C\C/C=C\CCCCCCCC(=O)OCC(COC(=O)CCCCCCC/C=C\C/C=C\CCCCC)OC(=O)CCC(CCCCCCCC)OC(=O)NCCN(C)CC (stereo not shown)
3. CCCCC/C=C\C/C=C\CCCCCCCC(=O)OCC(COC(=O)CCCCCCC/C=C\C/C=C\CCCCC)OC(=O)CCC(CCCCCCCC)OC(=O)OCCCN1CCCC1 (stereo not shown)
4. CCCCC/C=C\C/C=C\CCCCCCCC(=O)OCC(COC(=O)CCCCCCC/C=C\C/C=C\CCCCC)OC(=O)CCC(CCCCCCCCCCCC)OC(=O)CCCN(CC)CC (stereo not shown)

Ans.
4.5%
44.8%
30.0%
9.2%
